target: human CSNK1D tagged with nanoluciferase (Homo sapiens (Human), UniProt P48730); test: Whole Cell nBRET CSNK1D Binding Assay; details: living CHO cells stably expressing human CSNK1D-nanoluciferase; NanoBret tracer 130 nM; 2 hours 37° C.; read-out: CSNK1D BRET IC50
Sequence (P48730 whole entry): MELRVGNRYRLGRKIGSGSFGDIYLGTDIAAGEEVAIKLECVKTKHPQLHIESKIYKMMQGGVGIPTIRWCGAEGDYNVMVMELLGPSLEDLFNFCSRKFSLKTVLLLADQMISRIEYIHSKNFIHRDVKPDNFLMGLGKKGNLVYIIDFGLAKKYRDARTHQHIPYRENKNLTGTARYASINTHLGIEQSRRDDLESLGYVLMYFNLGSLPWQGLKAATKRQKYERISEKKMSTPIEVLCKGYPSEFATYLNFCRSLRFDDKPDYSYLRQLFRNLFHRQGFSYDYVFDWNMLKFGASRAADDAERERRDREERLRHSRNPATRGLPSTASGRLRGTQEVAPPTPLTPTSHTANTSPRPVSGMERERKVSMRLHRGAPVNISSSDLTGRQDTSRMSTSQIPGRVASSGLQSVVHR
observed.property: IC50 (µM)

These recorded examples may help you get a feel for the data.
>>> print(df.to_string())
                              line_notation                               test_system  units_text  reported_result
0  Cn1cc(-c2c(C3COC3)cnc3[nH]ccc23)c(-c2ccc(F)cn2)n1  human CSNK1D tagged with nanoluciferase (Homo sapiens (Human), UniProt P48730)          µM            0.653
1  COc1cc2c(-c3cn(C)nc3-c3ccc(F)cn3)ccnc2cc1F  human CSNK1D tagged with nanoluciferase (Homo sapiens (Human), UniProt P48730)          µM            0.491

P: Fc1ccc(-c2nn(C(F)F)cc2-c2ccnc3[nH]ncc23)nc1
Q: Cn1cc(-c2ccnc3[nH]ccc23)c(-c2cscn2)n1
Req: Please choose the item with the lower IC50 value from this pair: P and Q # reply format: chosen label
Resp: Q

* * *

biological target: human recombinant GST cleaved CSNK1D (Homo sapiens (Human)); assay: Purified enzyme assay (ADP-Glo Kinase Assay); format: biochemical; details: 2 nM CSNK1D, peptide substrate 150 μM, ATP 20 μM, 45 minutes room temperature
observed.property: AC50 (µM)

These recorded examples may help you get a feel for the data.
                                   compound  reported_result
0  Cn1cc(-c2ccnc3[nH]cc(C#N)c23)c(-c2ccc(F)cn2)n1            0.016
1  Cn1cc(-c2ccnc3[nH]cc(CC4CCOC4)c23)c(-c2ccc(F)cn2)n1 (racemic)            0.384
2  Cn1cc(-c2ccnc3[nH]ccc23)c(-c2ccc(OC(F)(F)F)cn2)n1             6.48
3  COc1cnc2c(-c3cn(C)nc3-c3ccc(F)cn3)ccnc2c1            0.022
4  Cc1cc(-c2cn(CC(F)F)nc2-c2ccc(F)cn2)c2cn[nH]c2n1            0.006
5  CC(C)n1cc(-c2ccnc3[nH]ncc23)c(-c2ccc(F)cn2)n1            0.044

1: Cn1cc(-c2ccnc3[nH]ccc23)c(-c2ccns2)n1
2: Cn1cc(-c2ccnc3[nH]ccc23)c(-c2ncc(F)cn2)n1
3: COCCn1cc(-c2cc(C)nc3[nH]ncc23)c(-c2ccc(F)cn2)n1
Req: rank_up(items): orders items by reported AC50 in ascending numerical order. Return the labels ranked in the requested order, please.
Resp: 3, 2, 1

* * *

target: human recombinant GST cleaved CSNK1D (Homo sapiens (Human), UniProt P48730); assay: Purified enzyme assay (ADP-Glo Kinase Assay); type: biochemical; details: 2 nM CSNK1D, peptide substrate 150 μM, ATP 20 μM, 45 minutes room temperature
Sequence (P48730 whole entry): as above
observed.property: AC50 (nM)

1: Cc1cnc(-c2nn(C)cc2-c2ccnc3[nH]ccc23)cn1 [Example 47]
2: Cn1cc(-c2ccnc3cc(Br)cnc23)c(-c2ccc(F)cn2)n1 [Example 153]
3: Cn1cc(-c2ccnc(NC(=O)C3CC3)c2)c(-c2ccc(F)cn2)n1 [Example 116]
4: Cn1cc(-c2ccnc3cc(Cl)ccc23)c(-c2ccc(F)cn2)n1 [Example 105]
5: Cn1cc(-c2ccnc3cc(C#N)ccc23)c(-c2ccc(F)cn2)n1 [Example 149]
Req: Falling order of AC50, please. Return the labels ranked in the requested order, please.
Resp: 1, 5, 2, 4, 3
(1: 346 nM, 5: 124 nM, 2: 39 nM, 4: 25 nM, 3: 3 nM)

P: Cc1cc(-c2cn(CC(C)C)nc2-c2ccc(F)cn2)c2cn[nH]c2n1 [Example 63]
Q: Cn1cc(-c2ccnc3[nH]ccc23)c(-c2ccncc2F)n1 [Example 18]
Req: Return label of the item with the larger AC50. Candidates: P , Q . # reply format: chosen label
Resp: Q
(Q: 26 nM, P: 6 nM)

P: COc1cc2nccc(-c3cn(C)nc3-c3ccc(F)cn3)c2cn1 [Example 154]
Q: Cn1cc(-c2c(C#N)cnc3[nH]ccc23)c(-c2ccc(F)cn2)n1 [Example 89]
Req: Return label of the item with the larger AC50. Candidates: P , Q . # reply format: chosen label
Resp: P
(P: 25 nM, Q: 3 nM)

* * *

molecular target: human CSNK1D tagged with nanoluciferase (Homo sapiens (Human), UniProt P48730); experiment: Whole Cell nBRET CSNK1D Binding Assay; conditions: living CHO cells stably expressing human CSNK1D-nanoluciferase; NanoBret tracer 130 nM; 2 hours 37° C.; read-out: CSNK1D BRET IC50
observed.property: IC50 (nM)

                                   compound  reported_result
0  Cn1nc(-c2ccc(F)cn2)c(-c2ccnc3[nH]ccc23)c1C1CCC1              227
1  Cc1cc(-c2cn(C)nc2-c2ccc(F)cn2)c2cn[nH]c2n1              238
2  CCC(=O)Nc1cc(-c2cn(C)nc2-c2ccc(F)cn2)ccn1              107
3  Cn1cc(-c2cc(C(F)F)nc3[nH]ncc23)c(-c2cncc(F)c2)n1             6570
4     Cn1cc(-c2ccnc3[nH]ccc23)c(-c2ccns2)n1              678
5  Cn1cc(-c2cc(N)nc3[nH]ccc23)c(-c2ccc(F)cn2)n1               32
6  Cn1cc(-c2ccnc3[nH]ccc23)c(-c2ncc(F)cn2)n1              268
7    Cn1cc(-c2ccnc3c2CCC3)c(-c2ccc(F)cn2)n1              955

A: Cc1cc2c(-c3cn(C)nc3-c3ccc(F)cn3)ccnc2[nH]1
B: Cn1cc(-c2c(F)cnc3[nH]ccc23)c(-c2ccc(F)cn2)n1
C: Cc1cc(-c2cn(CC(C)C)nc2-c2ccc(F)cn2)c2cn[nH]c2n1
D: Fc1ccc(-c2nn(C3COC3)cc2-c2ccnc3[nH]ccc23)nc1
Req: rank_up(items): orders items by reported IC50 in ascending numerical order. Return the labels ranked in the requested order, please.
Resp: B, D, C, A
(B: 50 nM, D: 136 nM, C: 253 nM, A: 1460 nM)

1: Cc1cc(-c2cn(CC(F)F)nc2-c2ccc(F)cn2)c2cn[nH]c2n1
2: Fc1ccc(-c2nn(C(F)F)cc2-c2ccnc3[nH]ccc23)nc1
3: Cn1cc(-c2ccnc3[nH]cc(Cl)c23)c(-c2ccc(F)cn2)n1
4: Cc1ccc(-c2nn(C)cc2-c2ccnc3[nH]ccc23)cn1
5: COc1cc2nccc(-c3cn(C)nc3-c3ccc(F)cn3)c2cn1
Req: rank_up(items): orders items by reported IC50 in ascending numerical order. Return the labels ranked in the requested order, please.
Resp: 3, 2, 1, 5, 4

P: Cn1cc(-c2c(CC3COC3)cnc3[nH]ccc23)c(-c2ccc(F)cn2)n1
Q: Cc1cc(-c2cn(CC3COC3)nc2-c2ccc(F)cn2)c2cn[nH]c2n1
R: Cn1cc(-c2ccnc3[nH]cc(CC#N)c23)c(-c2ccc(F)cn2)n1
S: Cn1cc(-c2ccnc3[nH]ccc23)c(-c2nccn2C)n1
T: Cc1cc(-c2cn(C3COC3)nc2-c2ccc(F)cn2)c2cn[nH]c2n1
Req: Order the records by IC50, with each subsequent value no larger than the one before. Return the labels ranked in the requested order, please.
Resp: R, S, T, P, Q

* * *

molecular target: human recombinant GST cleaved CSNK1D (Homo sapiens (Human)); experiment: Purified enzyme assay (ADP-Glo Kinase Assay); type: biochemical; details: 2 nM CSNK1D, peptide substrate 150 μM, ATP 20 μM, 45 minutes room temperature
observed.property: AC50 (nM)

>>> df
                                   compound  observed_property  reported_result
0    Cn1cc(-c2ccnc3c2CCC3)c(-c2ccc(F)cn2)n1               AC50               37
1  Cc1cc(-c2cn(C3CCC3)nc2-c2ccc(F)cn2)c2cn[nH]c2n1               AC50                3
2  COc1ccc2c(-c3cn(C)nc3-c3ccc(F)cn3)cc(C)nc2c1               AC50             5360
3  Cn1cc(-c2cc(C3CC3)nc3[nH]ncc23)c(-c2ccc(F)cn2)n1               AC50               34
4  Cn1cc(-c2ccnc3[nH]ncc23)c(-c2ccc(F)cn2)n1               AC50               76

A: Cc1cncc(-c2nn(C)cc2-c2cc(C)nc3[nH]ncc23)c1
B: COc1nc(-c2nn(C)cc2-c2cc(C)nc3[nH]ncc23)ccc1Cl
C: Cc1ccc2nccc(-c3cn(C)nc3-c3ccc(F)cn3)c2n1
D: Cn1cc(-c2ccnc3[nH]ccc23)c(-c2cncs2)n1
Req: Order the records by AC50, with each subsequent value no larger than the one before. Return the labels ranked in the requested order, please.
Resp: C, B, D, A
(C: 310 nM, B: 134 nM, D: 83 nM, A: 38 nM)

I: Cn1cc(-c2ncnc3[nH]ccc23)c(-c2ccc(F)cn2)n1
II: Cn1cc(-c2ccnc3cc[nH]c23)c(-c2ccc(F)cn2)n1
Req: Return label of the item with the larger AC50. Candidates: I , II . # reply format: chosen label
Resp: II
(II: 118 nM, I: 48 nM)

A: Cn1cc(-c2ccnc3[nH]ncc23)c(-c2ncc(F)cc2F)n1
B: Cn1cc(-c2ccnc3[nH]ccc23)c(-c2ccncc2)n1
Req: Please choose the item with the lower AC50 value from this pair: A and B # reply format: chosen label
Resp: A

A: Cn1cc(-c2ccnc3cc(F)ccc23)c(-c2ccc(F)cn2)n1
B: Cn1cc(-c2ccnc3[nH]cc(Br)c23)c(-c2ccc(F)cn2)n1
Req: Return label of the item with the larger AC50. Candidates: A , B . # reply format: chosen label
Resp: A
(A: 39 nM, B: 1 nM)

a: Cc1cc2c(-c3cn(C)nc3-c3ccc(F)cn3)ccnc2[nH]1
b: Cn1nc(-c2ccc(F)cn2)c(-c2ccnc3[nH]ccc23)c1C1CCC1
Req: Please choose the item with the lower AC50 value from this pair: a and b # reply format: chosen label
Resp: b
(b: 13 nM, a: 84 nM)

1: CC(C)c1n[nH]c2nccc(-c3cn(C)nc3-c3ccc(F)cn3)c12
2: Cn1cc(-c2ccnc3[nH]ccc23)c(-c2cncn2C)n1
3: Fc1ccc(-c2nn(C3CCOC3)cc2-c2ccnc3[nH]ccc23)nc1 (racemic)
4: Cn1cc(-c2ccnc3[nH]ccc23)c(-c2ccc(OC(F)F)cn2)n1
Req: rank_up(items): orders items by reported AC50 in ascending numerical order. Return the labels ranked in the requested order, please.
Resp: 1, 3, 2, 4
(1: 15 nM, 3: 36 nM, 2: 2280 nM, 4: 9180 nM)

P: Cn1cc(-c2ccnc3[nH]cc(CC#N)c23)c(-c2ccc(F)cn2)n1
Q: Cn1cc(-c2ccnc3cn[nH]c23)c(-c2ccc(F)cn2)n1
Req: Return label of the item with the larger AC50. Candidates: P , Q . # reply format: chosen label
Resp: P

1: CCOc1ccc2nccc(-c3cn(C)nc3-c3ccc(F)cn3)c2n1
2: Cn1cc(-c2ccnc3[nH]cc(F)c23)c(-c2ccc(F)cn2)n1
Req: Please choose the item with the lower AC50 value from this pair: 1 and 2 # reply format: chosen label
Resp: 2
